Reported values of max response for individual entries
# TEST_NAME: Cycloheximide Counterscreen for Small Molecule Inhibitors of Shiga Toxin
# CONDITION_SUMMARY: cell reporter, cycloheximide protein synthesis inhibition counterscreen; hits give high values
The whole screen tested about 300,000 compounds, of which about 37,000 (12%) were called active. The list comes from a sample in which actives are over-represented; it also holds close analogues and randomly drawn compounds.
OBSERVABLE: max response (%)

INSERT INTO measurements (compound, unit_of_measure, test_result) VALUES
  ('c1ccc2c(NC3C4CC5CC(C4)CC3C5)nc(N3CCOCC3)nc2c1 (stereo unspecified)', '%', -3.82),
  ('Cc1ccccc1-n1cc(CNC(=O)CC2C(=O)NCCN2C/C=C/c2ccccc2)cn1 (stereo unspecified)', '%', 0.457),
  ('COCc1ccc(C(=O)N2CCc3c([nH]c4ccccc34)C2c2ccccn2)s1 (stereo unspecified)', '%', -4.02),
  ('Cc1ccc(S(=O)(=O)NC(=O)c2cccc(C)c2)cc1', '%', 13.6),
  ('CCC(C)(C)c1ccc(Oc2ccc(NC(=O)COC(=O)C3=COCCO3)cc2)cc1', '%', 5.65),
  ('O=C(OCC(=O)c1cccs1)C1=COCCO1', '%', 51.4);

---

# TEST_NAME: Cycloheximide Counterscreen for Small Molecule Inhibitors of Shiga Toxin
# CONDITION_SUMMARY: cell reporter, cycloheximide protein synthesis inhibition counterscreen; hits give high values
In all, about 300,000 compounds went through this assay and about 37,000 (12%) were called active. This is one part of a sample in which actives are shown more often than they occur.
Reported values of max response for individual entries
OBSERVABLE: max response (%)

INSERT INTO assay_data (sample_smiles, observable, test_result) VALUES
  ('CNC(=O)c1sc(NCc2ccccc2OC)nc1C', 'max response', -3.72),
  ('COc1cccc2sc(Nc3nc(C)c(C(C)=O)s3)nc12', 'max response', 16.2),
  ('COc1cc2ccccc2cc1C(=O)Nc1ccccc1C', 'max response', 29.7),
  ('CC(=O)c1sc(NC(=O)C2=NN(c3ccccc3)C(=O)CC2)nc1C', 'max response', -0.878),
  ('COC(=O)c1sc(NC(=S)NC(=O)c2ccc(C)cc2)nc1C', 'max response', 9.32),
  ('CCOC(=O)c1sc(NC(=O)c2ccncc2)nc1C', 'max response', 0.888);

---

Reported values of max response for individual entries
# TEST_NAME: Cycloheximide Counterscreen for Small Molecule Inhibitors of Shiga Toxin; further: read at 38.3 µM for the half of the compounds with a filed dose; 0% is about no effect
# CONDITION_SUMMARY: cell reporter, cycloheximide protein synthesis inhibition counterscreen; hits give high values
About 37,000 (12%) of roughly 300,000 compounds were called active. The full list was thinned out, with actives kept by preference.
OBSERVABLE: max response (%)

INSERT INTO assay_data (compound, observable, test_result) VALUES
  ('COc1ccc(OC)c(C(C)NC(=S)Nc2ccc(S(=O)(=O)Nc3ncccn3)cc2)c1 (configuration not stated)', 'max response', -0.745),
  ('C/C(=N\NS(=O)(=O)c1ccccc1)c1c(O)cc(C)oc1=O', 'max response', 3.15),
  ('COc1ccc(-c2cc(=O)oc3cc(OCC(=O)N(C)C4CCS(=O)(=O)C4)ccc23)cc1 (configuration not stated)', 'max response', 3.93),
  ('Cc1c(NC(=O)c2cccnc2)c(=O)n(-c2ccccc2)n1C', 'max response', -2.61),
  ('Cc1nn2c3ccccc3nc2n(C)c1=O', 'max response', -2.2),
  ('CCOC(=O)c1nc(Nc2ccc(C(=O)OC)cc2)c2ccccc2n1', 'max response', 9.36),
  ('CC(=O)N1CCN(CC(=O)Nc2ccc(SC(F)F)cc2)CC1', 'max response', -7.31),
  ('Cn1c(S(=O)(=O)O)nc2ccccc21', 'max response', -1.42),
  ('COc1ccc(-c2csc3nc(-c4ccccc4F)oc(=O)c23)cc1OC', 'max response', -1.13),
  ('O=C(C1CC(=O)N(C2CCCCC2)C1)N1CCN(c2ccccc2)CC1 (configuration not stated)', 'max response', -1.46),
  ('CCN(C(=O)COC(=O)c1ccc(COc2ccc3c(C)cc(=O)oc3c2)cc1)C1CCS(=O)(=O)C1 (configuration not stated)', 'max response', 21.1),
  ('Cc1ccc(-n2nc3cc(Cl)c(NC(=O)c4ccco4)cc3n2)cc1', 'max response', 45),
  ('Cc1nc([N+](=O)[O-])nn1C12CC3CC(CC(Br)(C3)C1)C2', 'max response', 15.4),
  ('Cc1cnc(C(=O)OCC(=O)N2CCc3ccccc32)cn1', 'max response', 9.5),
  ('O=C(Cc1ccc(Cl)c(Cl)c1)Nc1ccc(SC(F)F)cc1', 'max response', 32.1),
  ('CCOc1nc(-c2ccc(OC)cc2)ccc1-c1noc(-c2cc(OC)c(OC)c(OC)c2)n1', 'max response', 8.08),
  ('COc1ccc(NC(C(=O)Nc2cccc(C(C)=O)c2)c2ccccc2)cc1 (configuration not stated)', 'max response', 12.5),
  ('Cc1ccc(CC(=O)Nc2ccc(OC(F)F)c(Cl)c2)cc1C', 'max response', -1.56),
  ('COC(=O)c1ccc(OC(=O)c2cnccn2)cc1', 'max response', -7.13),
  ('COc1ccc(NC(=S)SC)cc1OC', 'max response', -3.14),
  ('COc1ccccc1NC(=O)c1ccc(N2CC3CC(C2)c2cccc(=O)n2C3)c(NC(=O)c2cccnc2)c1 (configuration not stated)', 'max response', -5.5),
  ('CC(C)CCN(C(=O)c1csnn1)C(C(=O)NC1CCCC1)c1ccccc1 (configuration not stated)', 'max response', -2.45);

---

# TEST_NAME: Cycloheximide Counterscreen for Small Molecule Inhibitors of Shiga Toxin; further: read at 38.3 µM for the half of the compounds with a filed dose; 0% is about no effect
# CONDITION_SUMMARY: cell reporter, cycloheximide protein synthesis inhibition counterscreen
Among all 300,000 compounds or so, about 37,000 (12%) were called active. Rule as the data show it: active = max response mostly above about 13% (no sharp cut-off); inactive = mostly below about 14%. This is one part of a sample in which actives are shown more often than they occur.
Classes used: active, inactive

INSERT INTO measurements (sample_smiles, qualitative_label) VALUES
  ('CCn1c(NC(=O)c2nn(C)cc2Br)nc2ccccc21', 'inactive'),
  ('NNC(=O)c1nnn(-c2nonc2N)c1CN1CCCC1', 'inactive'),
  ('c1ccc(-c2nc(NCc3ccco3)c3ccccc3n2)cc1', 'active'),
  ('O=C(Cc1ccccc1)n1nc(-c2ccccc2)nc1NCc1ccco1', 'active'),
  ('CSc1nc(-c2ccco2)nn1C(=O)CCc1ccccc1', 'inactive'),
  ('CCOC(=O)c1sc(/N=C/C2=C(O)CC(C)(C)CC2=O)c(C(=O)OCC)c1C', 'active');

---

Reported values of max response for individual entries
# TEST_NAME: Cycloheximide Counterscreen for Small Molecule Inhibitors of Shiga Toxin; further: read at 38.3 µM for the half of the compounds with a filed dose; 0% is about no effect
# CONDITION_SUMMARY: cell reporter, cycloheximide protein synthesis inhibition counterscreen; hits give high values
Screen size: about 300,000 compounds; about 37,000 (12%) were called active. What follows is part of a selection rich in actives, with near analogues and random picks from the rest.
OBSERVABLE: max response

INSERT INTO measurements (compound, test_result) VALUES
  ('Cc1ccc(O)c(CCc2ccccc2)n1', '17.6% (active)'),
  ('CCOc1ccc(N2CC(C(=O)NCc3ccccn3)CC2=O)cc1 (stereo unspecified)', '-11.6% (inactive)'),
  ('Cc1ccc(O)c(-c2cc(C(=O)NCc3ccccc3)[nH]n2)c1', '11.1% (inactive)'),
  ('c1ccc(CSCCc2ccncc2)cc1', '7.75% (inactive)'),
  ('Cc1ccc(CN(Cc2cccnc2)C(=S)Nc2cccc(Cl)c2C)cc1', '9.59% (inactive)'),
  ('Fc1ccc(/C=N/n2c(COc3ccccc3)n[nH]c2=S)cc1', '-4.69% (inactive)');

---

# TEST_NAME: Cycloheximide Counterscreen for Small Molecule Inhibitors of Shiga Toxin; further: read at 38.3 µM for the half of the compounds with a filed dose; 0% is about no effect
# CONDITION_SUMMARY: cell reporter, cycloheximide protein synthesis inhibition counterscreen; hits give high values
Among all 300,000 compounds or so, about 37,000 (12%) were called active. This is one part of a sample in which actives are shown more often than they occur.
OBSERVABLE: max response (%)

INSERT INTO assay_data (molecule, unit_of_measure, test_result) VALUES
  ('N#Cc1ccccc1S(=O)(=O)N1CCN(C(=O)c2cc(-c3ccccc3)nn2-c2ccccc2)CC1', '%', -0.928),
  ('CC1CCN(S(=O)(=O)c2ccc3[nH]c(=O)ccc3c2)CC1', '%', 0.735),
  ('COc1ccc(-c2nn(-c3ccccc3)cc2/C=N/Nc2ccccn2)cc1OC', '%', 14.8),
  ('CCN(CC(=O)Nc1ccccc1OC)C(=O)Cn1cnc2ccccc2c1=O', '%', 1.69),
  ('Cc1cc2ccccn2c1C(=O)c1cccc(S(=O)(=O)N2CCOCC2)c1', '%', -0.598),
  ('Cc1ccc(NC(=S)N(CCN(C)C)Cc2cccs2)cc1C', '%', -3.5),
  ('CCCCC1(C(=O)OCC)NC(c2ccc(O)cc2)C2C(=O)N(c3ccccc3)C(=O)C21 (stereo not drawn)', '%', -1.77),
  ('Cc1ccc(S(=O)(=O)c2nc(-c3cccs3)oc2NCc2cccnc2)cc1', '%', 7.52),
  ('O=C(Nc1ccccc1)OCc1cn(-c2ccc(Cl)cc2)nn1', '%', -3.74),
  ('C/C=C/c1ccc(OCCCCN2CCC(C)CC2)c(OC)c1', '%', 0.514),
  ('O=C(CCN1C(=O)[C@@H]2Cc3ccccc3CN2C1=O)NCc1ccccc1', '%', -3.78),
  ('Cc1ccc(-c2nc3c(cnn3-c3ccccc3)c(=O)o2)cc1', '%', -3.4),
  ('COc1ccc(-n2c(C)nc3c(cnn3-c3ccccc3)c2=O)cc1', '%', -2.87),
  ('COc1ccc(-c2nn(-c3ccccc3)cc2C(=O)Nc2nccs2)cc1OC', '%', -1.49),
  ('Cc1ccc(-c2nn(-c3cccc(F)c3)cc2CNCCc2ccncc2)o1', '%', 5.75),
  ('CN(C)/N=C/c1cn(-c2ccccc2)nc1-c1cccnc1', '%', 6.55),
  ('COc1ccc(C(CNC(=O)COc2ccc([N+](=O)[O-])cc2)N2CCCCC2)cc1 (stereo not drawn)', '%', -2.15),
  ('CC1COc2ccccc2N1C(=O)c1ccc(F)cc1 (stereo not drawn)', '%', -4.53),
  ('CC(=O)Cn1cnc2c(cnn2-c2ccccc2)c1=O', '%', 20.7),
  ('COCCc1nn2c(=O)cc(COC(=O)c3cc(OC)c(OC)c(OC)c3)nc2s1', '%', 3.56),
  ('CO/N=C/c1cn(-c2ccc(Cl)cc2)nn1', '%', 24.4),
  ('Cn1cnc([N+](=O)[O-])c1Sc1ccccc1', '%', -3.34),
  ('COc1ccc(CNC(=O)Cc2ccc(-c3ccccc3)cc2)cc1OC', '%', -3.24);
